pKi listing for selected molecules.
target: UniProt Q04759; assay: Displacement of [3H]PDBu from PKCtheta C1B domain
Sequence (Q04759 whole entry, the tested form may be a part): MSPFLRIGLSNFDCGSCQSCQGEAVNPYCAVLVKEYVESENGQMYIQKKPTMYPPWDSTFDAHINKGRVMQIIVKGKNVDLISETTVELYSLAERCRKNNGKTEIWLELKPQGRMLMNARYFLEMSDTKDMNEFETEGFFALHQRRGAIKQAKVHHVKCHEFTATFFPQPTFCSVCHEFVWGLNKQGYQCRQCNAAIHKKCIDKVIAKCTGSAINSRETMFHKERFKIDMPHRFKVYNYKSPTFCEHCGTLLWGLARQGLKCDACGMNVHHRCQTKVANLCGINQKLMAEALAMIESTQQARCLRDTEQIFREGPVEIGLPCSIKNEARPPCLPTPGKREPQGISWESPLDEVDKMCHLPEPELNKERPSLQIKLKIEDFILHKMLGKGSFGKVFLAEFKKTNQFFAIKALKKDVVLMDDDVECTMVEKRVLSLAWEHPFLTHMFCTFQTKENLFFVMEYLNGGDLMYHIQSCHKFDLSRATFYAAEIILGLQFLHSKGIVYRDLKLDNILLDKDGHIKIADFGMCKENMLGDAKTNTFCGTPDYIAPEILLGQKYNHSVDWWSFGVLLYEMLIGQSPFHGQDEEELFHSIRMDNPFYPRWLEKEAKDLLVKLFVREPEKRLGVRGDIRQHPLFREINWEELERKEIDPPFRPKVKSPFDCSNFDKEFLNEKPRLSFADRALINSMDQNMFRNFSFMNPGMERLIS
Lab note: report pKi as minus log10 of the concentration in molar units, number only.

# molecular string, readout, reported result
measured = [
    ("CCCCCCn1cc2c3c(cccc31)N(C)[C@@H](C(C)C)C(=O)N[C@H](CO)C2", "pKi", 8.85),
]

Lab note: next molecule to report on.
Prompt line: Can you look up the measured pKi of "CCCCCCn1cc2c3c(cccc31)N(C)[C@@H](C(C)C)C(=O)N[C@H](CO)CC2" for me?
Response line: 7.92

----------
Entries and their pKi
assay: Displacement of [3H]PDBu from PKCdelta C1B P11dfP mutant
Give only the number. pKi is defined as minus log10 of concentration in molar units.

Field: example entries. Status: answers known.
# compound, pKi
data = [
    ("CC(C)[C@H]1C(=O)N[C@H](CO)Cc2c[nH]c3cccc(c23)N1C [INDOLACTUM]", 6.89),
    ("CCCCCCn1cc2c3c(cccc31)N(C)[C@@H](C(C)C)C(=O)N[C@H](CO)CC2", 6.92),
    ("CC(C)[C@H]1C(=O)N[C@H](CO)Cc2ccccc2N1C", 6.36),
]

Let us examine a further case.
Prompt line: I'd like to know its pKi. The compound in question is "CCCCCCn1cc2c3c(cccc31)N(C)[C@@H](C(C)C)C(=O)N[C@H](CO)C2"
Response line: 8.43

----------
As a worked illustration, we turn to pKi data collected for Protein kinase C eta type (Homo sapiens, UniProt P24723).
Value format note: pKi is -log10 of concentration (mol/L); just state the number.

# molecular string, subject of test, readout, reported result
records = [
    ("CCCCCCn1cc2c3c(cccc31)N(C)[C@@H](C(C)C)C(=O)N[C@H](CO)C2", "Protein kinase C eta type (Homo sapiens, UniProt P24723)", "pKi", 9.47),
]

Read the next record carefully.
Prompt line: Suppose we examine the compound "CCCCCCn1cc2c3c(cccc31)N(C)[C@@H](C(C)C)C(=O)N[C@H](CO)CC2" ; what pKi value has been reported?
Response line: 7.60

----------
target: Protein kinase C delta type (Homo sapiens, UniProt Q05655); assay: Displacement of [3H]PDBu from PKCdelta C1B domain
Sequence (Q05655 whole entry, the tested form may be a part): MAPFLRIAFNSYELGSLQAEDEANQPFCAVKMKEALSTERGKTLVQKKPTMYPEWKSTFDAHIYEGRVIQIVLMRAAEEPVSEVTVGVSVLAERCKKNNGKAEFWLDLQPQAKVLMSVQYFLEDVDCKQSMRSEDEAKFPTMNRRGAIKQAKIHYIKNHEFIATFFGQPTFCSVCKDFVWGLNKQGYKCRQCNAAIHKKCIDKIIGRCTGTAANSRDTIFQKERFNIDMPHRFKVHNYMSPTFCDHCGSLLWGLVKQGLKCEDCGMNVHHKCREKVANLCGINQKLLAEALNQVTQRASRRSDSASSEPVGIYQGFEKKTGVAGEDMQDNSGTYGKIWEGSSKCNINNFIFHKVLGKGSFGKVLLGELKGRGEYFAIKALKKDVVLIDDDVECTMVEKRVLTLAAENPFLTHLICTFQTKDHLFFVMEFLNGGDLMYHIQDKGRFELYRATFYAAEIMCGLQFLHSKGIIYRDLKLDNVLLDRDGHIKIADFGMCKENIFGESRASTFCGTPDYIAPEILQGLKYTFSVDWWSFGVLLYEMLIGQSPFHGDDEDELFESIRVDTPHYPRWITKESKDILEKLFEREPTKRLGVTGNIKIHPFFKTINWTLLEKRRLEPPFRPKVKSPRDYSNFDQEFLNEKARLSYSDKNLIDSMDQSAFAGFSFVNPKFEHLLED
readout: pKi
Field pKi (float): negative decimal logarithm of the concentration in molar.

# molecule, pKi
data = [
    ("CCCCCCn1cc2c3c(cccc31)N(C)[C@@H](C(C)C)C(=O)N[C@H](CO)CC2", 7.82),
]

Prompt line: Form field: reported pKi of "CC(C)[C@H]1C(=O)N[C@H](CO)Cc2ccccc2N1C"
Response line: 6.39

Prompt line: Note, next up: "CCCCCCn1cc2c3c(cccc31)N(C)[C@@H](C(C)C)C(=O)N[C@H](CO)C2"
Response line: 9.34

Prompt line: Here is the next molecule: CC(C)[C@H]1C(=O)N[C@H](CO)Cc2c[nH]c3cccc(c23)N1C [INDOLACTUM]
Response line: 7.96

----------
test: Displacement of [3H]PDBu from PKCgamma C1A P11dfP mutant
readout: Ki (nM)
Please respond with the number in nM and leave the unit unwritten.

Below, 3 molecules whose answers are already recorded.
# molecule, Ki [nM]
records = [
    ("CCCCCCn1cc2c3c(cccc31)N(C)[C@@H](C(C)C)C(=O)N[C@H](CO)CC2", 14000),
    ("CCCCCCn1cc2c3c(cccc31)N(C)[C@@H](C(C)C)C(=O)N[C@H](CO)C2", 71),
    ("CC(C)[C@H]1C(=O)N[C@H](CO)Cc2ccccc2N1C", 2500),
]

Now turn to the next molecule.
Prompt line: Which value of Ki has been reported for CC(C)[C@H]1C(=O)N[C@H](CO)Cc2c[nH]c3cccc(c23)N1C [INDOLACTUM] in the records?
Response line: 690

----------
target: Protein kinase C gamma type (Homo sapiens, UniProt P05129); test: Displacement of [3H]PDBu from PKCgamma C1A domain
Reported values of pKi for individual entries
// returns pKi (minus log10 of molar concentration), number only

Recorded pKi, per entry:
# compound, pKi
data = [
    ("CCCCCCn1cc2c3c(cccc31)N(C)[C@@H](C(C)C)C(=O)N[C@H](CO)CC2", 4.96),
    ("CC(C)[C@H]1C(=O)N[C@H](CO)Cc2ccccc2N1C", 5.51),
    ("CC(C)[C@H]1C(=O)N[C@H](CO)Cc2c[nH]c3cccc(c23)N1C [INDOLACTUM]", 7.05),
]

Let's switch to this compound now.
Prompt line: Could you tell me which pKi is on file for "CCCCCCn1cc2c3c(cccc31)N(C)[C@@H](C(C)C)C(=O)N[C@H](CO)C2" ?
Response line: 7.82

----------
target: Protein kinase C alpha type (Homo sapiens, UniProt P17252); test: Displacement of [3H]PDBu from PKCalpha C1B domain
// reported Ki for each item listed

Prompt line: Consider the compound "CCCCCCn1cc2c3c(cccc31)N(C)[C@@H](C(C)C)C(=O)N[C@H](CO)CC2" and give its measured Ki.
Response line: > 10 µM

Prompt line: Queued: "CCCCCCn1cc2c3c(cccc31)N(C)[C@@H](C(C)C)C(=O)N[C@H](CO)C2"
Response line: 0.043 µM

----------
Overview of recorded Ki for various compounds
molecular target: Protein kinase C beta type (Homo sapiens, UniProt P05771); assay: Displacement of [3H]PDBu from PKCbeta C1B domain
Sequence (P05771 whole entry, the tested form may be a part): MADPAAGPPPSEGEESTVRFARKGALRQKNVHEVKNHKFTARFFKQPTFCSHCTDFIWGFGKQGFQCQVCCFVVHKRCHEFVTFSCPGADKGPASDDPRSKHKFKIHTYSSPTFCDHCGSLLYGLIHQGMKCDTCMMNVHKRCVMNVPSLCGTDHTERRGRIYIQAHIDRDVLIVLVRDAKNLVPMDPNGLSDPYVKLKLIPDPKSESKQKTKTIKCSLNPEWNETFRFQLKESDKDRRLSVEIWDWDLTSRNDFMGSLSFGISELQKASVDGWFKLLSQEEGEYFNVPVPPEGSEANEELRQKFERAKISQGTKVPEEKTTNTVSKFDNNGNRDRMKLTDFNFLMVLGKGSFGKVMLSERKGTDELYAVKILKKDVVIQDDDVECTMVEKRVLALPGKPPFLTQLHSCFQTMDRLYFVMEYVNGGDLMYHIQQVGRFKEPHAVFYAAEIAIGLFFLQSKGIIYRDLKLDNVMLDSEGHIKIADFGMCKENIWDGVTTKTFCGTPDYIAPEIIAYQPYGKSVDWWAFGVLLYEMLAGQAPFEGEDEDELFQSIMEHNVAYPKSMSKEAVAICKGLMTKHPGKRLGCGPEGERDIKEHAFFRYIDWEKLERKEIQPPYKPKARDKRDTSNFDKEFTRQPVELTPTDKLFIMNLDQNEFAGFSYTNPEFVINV
Give a bare numeral; the unit nM is implied.

# molecular string, readout, reported result
records = [
    ("CCCCCCn1cc2c3c(cccc31)N(C)[C@@H](C(C)C)C(=O)N[C@H](CO)C2", "Ki", 11),
]

Here's the next entry for you.
Prompt line: Which Ki is listed for "CCCCCCn1cc2c3c(cccc31)N(C)[C@@H](C(C)C)C(=O)N[C@H](CO)CC2" ?
Response line: 440

----------
assay: Selectivity ratio of PKCdelta C1B domain over PKCdelta C1B P11dfP mutant
readout: Ratio Ki
# respond with the number and nothing more

Worked examples follow.
# molecular string, Ratio Ki
records = [
    ("CC(C)[C@H]1C(=O)N[C@H](CO)Cc2ccccc2N1C", 1.1),
    ("CCCCCCn1cc2c3c(cccc31)N(C)[C@@H](C(C)C)C(=O)N[C@H](CO)C2", 8),
    ("CC(C)[C@H]1C(=O)N[C@H](CO)Cc2c[nH]c3cccc(c23)N1C", 11.8),
]

Consider now this further compound.
Prompt line: Which Ratio Ki value belongs to "CCCCCCn1cc2c3c(cccc31)N(C)[C@@H](C(C)C)C(=O)N[C@H](CO)CC2" ?
Response line: 8

----------
assay: Selectivity ratio of PKCgamma C1A domain over PKCgamma C1A P11dfP mutant
readout: Ratio Ki
// no unit string in output, number only

Some entries whose results are on file:
# molecular string, readout, reported result
records = [
    ("CC(C)[C@H]1C(=O)N[C@H](CO)Cc2c[nH]c3cccc(c23)N1C", "Ratio Ki", 7.8),
    ("CC(C)[C@H]1C(=O)N[C@H](CO)Cc2ccccc2N1C", "Ratio Ki", 0.8),
    ("CCCCCCn1cc2c3c(cccc31)N(C)[C@@H](C(C)C)C(=O)N[C@H](CO)CC2", "Ratio Ki", 1.3),
]

--- query ---
Prompt line: I am curious: what Ratio Ki value has been reported for "CCCCCCn1cc2c3c(cccc31)N(C)[C@@H](C(C)C)C(=O)N[C@H](CO)C2" ?
Response line: 4.7

----------
target: Protein kinase C alpha type (Homo sapiens); assay: Displacement of [3H]PDBu from PKCalpha C1A domain
readout: Ki (nM)
Expressed in nM, but write only the number.

# molecular string, subject of test, Ki, nM
records = [
    ("CCCCCCn1cc2c3c(cccc31)N(C)[C@@H](C(C)C)C(=O)N[C@H](CO)C2", "Protein kinase C alpha type (Homo sapiens)", 5.8),
    ("CCCCCCn1cc2c3c(cccc31)N(C)[C@@H](C(C)C)C(=O)N[C@H](CO)CC2", "Protein kinase C alpha type (Homo sapiens)", 6700),
]

Now consider the entry below.
Prompt line: May I ask what Ki has been recorded for "CC(C)[C@H]1C(=O)N[C@H](CO)Cc2c[nH]c3cccc(c23)N1C" ?
Response line: 21
